- Test system: SD rats
- measurement context: rat, in vivo, iv
Below, each entry is listed alongside its reported MLD.
Answer in mg/kg, number only, no unit symbol.

> print(dat)
                                   compound  reported.result
1  Cc1cnc2n1-c1ccc(Br)cc1C(c1ccccn1)=NC2COC(=O)C(C)C (centres unmarked) [Compound 97]               30

Input line: MLD lookup needed for CCC(CN1N=C(c2ccccn2)c2cc(Br)ccc2N(C)C1=O)OC(=O)C(C)C (centres unmarked) [Compound 282] , thanks.
Output line: 15

Input line: MLD lookup needed for CC(C)n1nnnc1CCN1N=C(c2ccccn2)c2cc(Br)ccc2N(C)C1=O [Compound 266] , thanks.
Output line: 15

Input line: MLD lookup needed for Cc1cnc2n1-c1ccc(Br)cc1C(c1ccccn1)=NC2CCOC(=O)C1COC1 (centres unmarked) [Compound 153] , thanks.
Output line: 20

---

- Tested on: SD rats
- measurement context: SD, rat, in vivo, iv
Response key: YES means MLD >= 20 mg/kg; NO means MLD < 20 mg/kg.

Below are worked cases with known answers.
> print(dat)
                                   molecule  target.or.test.system  qualitative.label
1  COc1cc(CCN2N=C(c3ccccn3)c3cc(Br)ccc3N(C)C2=O)on1                SD rats                YES
2  Cc1cnc2n1-c1ccc(Br)cc1C(c1ccccn1)=NN2CCOC(=O)OC(C)C                SD rats                 NO
3  COc1nonc1CCN1N=C(c2ccccn2)c2cc(Br)ccc2N(C)C1=O                SD rats                YES
4  CCC(C)(C)OC(=O)CN1N=C(c2ccccn2)c2cc(Br)ccc2N(C)C1=O                SD rats                YES
5  Cc1cnc2n1-c1ccc(Br)cc1C(c1ccccn1)=NN2COC(=O)N(C)C                SD rats                YES
6  C=CC(C)OC(=O)CN1N=C(c2ccccn2)c2cc(Br)ccc2N(C)C1=O (centres unmarked)                SD rats                YES
7  CN1C(=O)N(CC(=O)OC2(C)COC2)N=C(c2ccccn2)c2cc(Br)ccc21                SD rats                YES
8  C=CC(C)OC(=O)CN1N=C(c2ccccn2)c2cc(Br)ccc2-n2c(C)cnc21 (centres unmarked)                SD rats                YES

Input line: API: above_or_equal(metric=MLD, cutoff=20 mg/kg) for item CC(F)C(=O)OCCN1N=C(c2ccccn2)c2cc(Br)ccc2N(C)C1=O (centres unmarked)
Output line: YES

Input line: API: above_or_equal(metric=MLD, cutoff=20 mg/kg) for item "CN1C(=O)N(CCOCc2ccccc2)N=C(c2ccccn2)c2cc(Br)ccc21"
Output line: NO

Input line: API: above_or_equal(metric=MLD, cutoff=20 mg/kg) for item "CC(C)COC(=O)CN1N=C(c2ccccn2)c2cc(Br)ccc2N(C)C1=O"
Output line: YES

Input line: API: above_or_equal(metric=MLD, cutoff=20 mg/kg) for item "CC(C)n1nnc(CCN2N=C(c3ccccn3)c3cc(Br)ccc3N(C)C2=O)n1"
Output line: YES

Input line: API: above_or_equal(metric=MLD, cutoff=20 mg/kg) for item "CN1C(=O)N(COCc2ccccc2)N=C(c2ccccn2)c2cc(Br)ccc21"
Output line: NO

Input line: API: above_or_equal(metric=MLD, cutoff=20 mg/kg) for item CC(C)C(=O)OC(CN1N=C(c2ccccn2)c2cc(Br)ccc2N(C)C1=O)C(C)C (centres unmarked)
Output line: NO

---

Below, each entry is listed alongside its reported MLD.
- System: SD rats
- measurement context: rat, in vivo, iv
Answer in mg/kg, number only, no unit symbol.

> print(dat)
                                   compound  target.or.test.system  unit.of.measure  reported.result
1  COC(=O)CCC1N=C(c2ccccn2)c2cc3nc(C(F)(F)F)sc3cc2N(C)C1=O (stereo not shown)                SD rats            mg/kg               40

Input line: MLD lookup needed for "CCn1nnnc1CN1N=C(c2ccccn2)c2cc(Br)ccc2N(C)C1=O" , thanks.
Output line: 40

Input line: MLD lookup needed for CN1C(=O)C(CCO)N=C(c2ccccn2)c2cc(Br)ccc21 (stereo not shown) , thanks.
Output line: 40

Input line: MLD lookup needed for CCOC(=O)C(C(C)C)N1N=C(c2ccccn2)c2cc(Br)ccc2N(C)C1=O (stereo not shown) , thanks.
Output line: 40

Input line: MLD lookup needed for CC(=O)OC1N=C(c2ccccn2)c2cc(Br)ccc2N(C)C1=O (stereo not shown) , thanks.
Output line: 40

Input line: MLD lookup needed for "CCOC(=O)CN1N=C(c2ccccn2)c2cc(Br)ccc2N=C1SC" , thanks.
Output line: 40

Input line: MLD lookup needed for Cc1cnc2n1-c1ccc(Br)cc1C(c1ccccn1)=NC2CCOC(=O)N(C)C (stereo not shown) , thanks.
Output line: 20

Input line: MLD lookup needed for COC(=O)CC1N=C(c2ccccn2)c2cc(Br)ccc2N(C)C1=O (stereo not shown) , thanks.
Output line: 40

Input line: MLD lookup needed for CCC(=O)OCC1N=C(c2ccccn2)c2cc(Br)ccc2N(C)C1=O (stereo not shown) , thanks.
Output line: 40

Input line: MLD lookup needed for CC(=O)OCCC1N=C(c2ccccn2)c2cc(Br)ccc2N(C)C1=O (stereo not shown) , thanks.
Output line: 40

Input line: MLD lookup needed for CC(C)OC(=O)CC1N=C(c2ccccn2)c2cc(Br)ccc2N(C)C1=O (stereo not shown) , thanks.
Output line: 20

Input line: MLD lookup needed for CN1C(=O)C(CCOC(=O)OC2COC2)N=C(c2ccccn2)c2cc(Br)ccc21 (stereo not shown) , thanks.
Output line: 20

---

Below, each entry is listed alongside its reported TI.
- Tested on: SD rats
- measurement context: SD, rat, in vivo
Form: value (number only, do not type unit).

> print(dat)
                                   compound  metric.name  reported.result
1  CN(C)C(=O)OCN1N=C(c2ccccn2)c2cc(Br)ccc2N(C)C1=O           TI                2

Input line: TI lookup needed for "CC(C)N(C)C(=O)OCN1N=C(c2ccccn2)c2cc(Br)ccc2N(C)C1=O" , thanks.
Output line: 1.3

Input line: TI lookup needed for "C#C[C@H](C)OC(=O)CN1N=C(c2ccccn2)c2cc(Br)ccc2N(C)C1=O" , thanks.
Output line: 2

Input line: TI lookup needed for CC(C)C(C)OC(=O)CN1N=C(c2ccccn2)c2cc(Br)ccc2N(C)C1=O (centres unmarked) , thanks.
Output line: 2

Input line: TI lookup needed for C=CC(C)OC(=O)CN1N=C(c2ccccn2)c2cc(Br)ccc2-n2c(C)cnc21 (centres unmarked) , thanks.
Output line: 4

Input line: TI lookup needed for "CN1C(=O)N(COCc2ccccc2)N=C(c2ccccn2)c2cc(Br)ccc21" , thanks.
Output line: 3

Input line: TI lookup needed for "CC(C)OC(=O)CN1N=C(c2ccccn2)c2cc(Br)ccc2N(C(C)C)C1=O" , thanks.
Output line: 4

Input line: TI lookup needed for "CC[C@H](C)OC(=O)CN1N=C(c2ccccn2)c2cc(Br)ccc2N(C)C1=O" , thanks.
Output line: 4

Input line: TI lookup needed for "C#C[C@@H](C)OC(=O)CN1N=C(c2ccccn2)c2cc(Br)ccc2-n2c(C)cnc21" , thanks.
Output line: 4

Input line: TI lookup needed for "CCC(C)(C)OC(=O)CN1N=C(c2ccccn2)c2cc(Br)ccc2-n2c(C)cnc21" , thanks.
Output line: 2

Input line: TI lookup needed for CCC(C)OC(=O)CN1N=C(c2ccccn2)c2cc(Br)ccc2N(C)C1=O (centres unmarked) , thanks.
Output line: 4

Input line: TI lookup needed for "CC(C)OC(=O)OCN1N=C(c2ccccn2)c2cc(Br)ccc2N(C)C1=O" , thanks.
Output line: 8.3

Input line: TI lookup needed for "CN(C)C(=O)OCCN1N=C(c2ccccn2)c2cc(Br)ccc2N(C)C1=O" , thanks.
Output line: 4

Input line: TI lookup needed for "CCN1C(=O)N(CC(=O)OC(C)C)N=C(c2ccccn2)c2cc(Br)ccc21" , thanks.
Output line: 6

Input line: TI lookup needed for "Cc1cnc2n1-c1ccc(Br)cc1C(c1ccccn1)=NN2CC(=O)OC1COC1" , thanks.
Output line: 6

Input line: TI lookup needed for "CN1C(=O)N(COC(=O)N2CCCC2)N=C(c2ccccn2)c2cc(Br)ccc21" , thanks.
Output line: 2

Input line: TI lookup needed for "Cc1cnc2n1-c1ccc(Br)cc1C(c1ccccn1)=NN2CCOC(=O)N(C)C" , thanks.
Output line: 4

Data provenance: patent EP4711368A1
